# Tested on: HOP-92
# experiment_summary: NCI60 antitumor screening
# Type: cell-based, human
# test_parameters: Homo sapiens; 10 μM single dose; HOP-92 (non-small cell lung cancer); read-out: growth inhibition percent (GI%)
Examples of molecules with documented inhibition at 10 µM follow.

Some molecules with known inhibition at 10 µM results, for comparison:
smiles_data	reported_property	result
Cc1ccc(CSc2nc(-c3ccc(F)cc3)c(C#N)c(N3CCNCC3)n2)cc1	inhibition at 10 µM	< 10%
CN1CCN(c2nc(SCc3ccc(F)cc3)nc(-c3ccc(F)cc3)c2C#N)CC1	inhibition at 10 µM	66.2%

Switching to the query record.
Given item `CN1CCN(c2nc(SCc3ccc([N+](=O)[O-])cc3)nc(-c3ccc(F)cc3)c2C#N)CC1` , the value recorded as its inhibition at 10 µM is 47%

* * *

Catalogue of inhibition at 10 µM values
# Tested on: MDA-MB-231/ATCC
# experiment_summary: NCI60 antitumor screening
# Format: cell-based, human
# test_parameters: Homo sapiens; 10 μM single dose; MDA-MB-231/ATCC (breast cancer); read-out: growth inhibition percent (GI%)

Below, 4 compounds whose answers are already recorded.
compound	result
Cc1ccc(CSc2nc(-c3ccc(F)cc3)c(C#N)c(N3CCNCC3)n2)cc1 [4h]	< 10%
N#Cc1c(-c2ccc(F)cc2)nc(SCc2ccccc2)nc1N1CCN(c2ccccc2)CC1 [4m]	< 10%
N#Cc1c(-c2ccc(F)cc2)nc(SCc2ccc([N+](=O)[O-])cc2)nc1N1CCNCC1 [4g]	< 10%
N#Cc1c(-c2ccc(F)cc2)nc(SCc2ccccc2)nc1N1CCNCC1 [4e]	> 100%

Just so you know, measured inhibition at 10 µM for N#Cc1c(-c2ccc(F)cc2)nc(SCc2ccc(F)cc2)nc1N1CCNCC1 [4f] came out at > 100%

* * *

# Test system: T-47D
# experiment_summary: NCI60 antitumor screening
# Format: cell-based, human
# test_parameters: 10 μM one-dose
reported_property: GI% (%)
Numbers only; they are read as %.

smiles_data	GI% / %
N#Cc1c(-c2ccc(F)cc2)nc(SCc2ccc([N+](=O)[O-])cc2)[nH]c1=O	23.03
N#Cc1c(-c2ccc(F)cc2)nc(SCc2ccc(F)cc2)nc1N1CCOCC1	26.75
N#Cc1c(Cl)nc(SCc2ccc([N+](=O)[O-])cc2)nc1-c1ccc(F)cc1	68.67
Cc1ccc(CSc2nc(-c3ccc(F)cc3)c(C#N)c(N3CCOCC3)n2)cc1	12.46

For `N#Cc1c(-c2ccc(F)cc2)nc(SCc2ccccc2)nc1N1CCOCC1` the compound record lists GI% as 15.89

* * *

# System: NCI-H23
# experiment_summary: NCI60 antitumor screening
# Assay type: cell-based, human
# test_parameters: Homo sapiens; 10 μM single dose; NCI-H23 (non-small cell lung cancer); read-out: growth inhibition percent (GI%)
Below, each entry is listed alongside its reported inhibition at 10 µM.

compound	inhibition at 10 µM
CN1CCN(c2nc(SCc3ccc([N+](=O)[O-])cc3)nc(-c3ccc(F)cc3)c2C#N)CC1 [4k]	19.7%

inhibition at 10 µM measured on Cc1ccc(CSc2nc(-c3ccc(F)cc3)c(C#N)c(N3CCNCC3)n2)cc1 [4h] = < 10%

For record Cc1ccc(CSc2nc(-c3ccc(F)cc3)c(C#N)c(N3CCN(C)CC3)n2)cc1 [4l] the listed inhibition at 10 µM is < 10%

Lab book: inhibition at 10 µM of N#Cc1c(-c2ccc(F)cc2)nc(SCc2ccccc2)nc1N1CCN(c2ccccc2)CC1 [4m] noted as < 10%

Reported inhibition at 10 µM of N#Cc1c(-c2ccc(F)cc2)nc(SCc2ccc(F)cc2)nc1N1CCNCC1 [4f] : > 100%

GET /value?item= CN1CCN(c2nc(SCc3ccccc3)nc(-c3ccc(F)cc3)c2C#N)CC1 [4i] &field=inhibition at 10 µM returns < 10%

* * *

This listing pairs compounds with measured inhibition at 10 µM.
# System: SK-MEL-28
# experiment_summary: NCI60 antitumor screening
# Type: cell-based, human
# test_parameters: Homo sapiens; 10 μM single dose; SK-MEL-28 (melanoma); read-out: growth inhibition percent (GI%)

Here is how some compounds turned out for inhibition at 10 µM.
smiles_data	result
N#Cc1c(-c2ccc(F)cc2)nc(SCc2ccc(F)cc2)nc1N1CCNCC1	> 100%
CN1CCN(c2nc(SCc3ccccc3)nc(-c3ccc(F)cc3)c2C#N)CC1	< 10%

Please turn your attention to the following entry.
Entry `Cc1ccc(CSc2nc(-c3ccc(F)cc3)c(C#N)c(N3CCNCC3)n2)cc1` ; inhibition at 10 µM = < 10%

* * *

# Test system: OVCAR-4
# experiment_summary: NCI60 antitumor screening
# Format: cell-based, human
# test_parameters: Homo sapiens; 10 μM single dose; OVCAR-4 (ovarian cancer); read-out: growth inhibition percent (GI%)
reported_property: inhibition at 10 µM

compound	inhibition at 10 µM
N#Cc1c(-c2ccc(F)cc2)nc(SCc2ccc(F)cc2)nc1N1CCNCC1 [4f]	> 100%
Cc1ccc(CSc2nc(-c3ccc(F)cc3)c(C#N)c(N3CCN(C)CC3)n2)cc1 [4l]	< 10%
N#Cc1c(-c2ccc(F)cc2)nc(SCc2ccc([N+](=O)[O-])cc2)nc1N1CCNCC1 [4g]	< 10%

Kindly review the next compound as well.
Please fill in: inhibition at 10 µM reported for N#Cc1c(-c2ccc(F)cc2)nc(SCc2ccccc2)nc1N1CCNCC1 [4e] = > 100%

* * *

# System: LOX IMVI
# experiment_summary: NCI60 antitumor screening
# Assay type: cell-based, human
# test_parameters: Homo sapiens; 10 μM single dose; LOX IMVI (melanoma); read-out: growth inhibition percent (GI%)
We begin with a simple list: items and their reported inhibition at 10 µM.

Below, 6 compounds whose answers are already recorded.
smiles_data	inhibition at 10 µM
CN1CCN(c2nc(SCc3ccccc3)nc(-c3ccc(F)cc3)c2C#N)CC1	25.4%
Cc1ccc(CSc2nc(-c3ccc(F)cc3)c(C#N)c(N3CCN(C)CC3)n2)cc1	12.8%
N#Cc1c(-c2ccc(F)cc2)nc(SCc2ccc([N+](=O)[O-])cc2)nc1N1CCN(c2ccccc2)CC1	< 10%
N#Cc1c(-c2ccc(F)cc2)nc(SCc2ccc([N+](=O)[O-])cc2)nc1N1CCNCC1	< 10%
N#Cc1c(-c2ccc(F)cc2)nc(SCc2ccc(F)cc2)nc1N1CCNCC1	> 100%
CN1CCN(c2nc(SCc3ccc([N+](=O)[O-])cc3)nc(-c3ccc(F)cc3)c2C#N)CC1	20.9%

// recorded inhibition at 10 µM for `Cc1ccc(CSc2nc(-c3ccc(F)cc3)c(C#N)c(N3CCNCC3)n2)cc1` : < 10%

Briefly, inhibition at 10 µM measured for `N#Cc1c(-c2ccc(F)cc2)nc(SCc2ccc(F)cc2)nc1N1CCN(c2ccccc2)CC1` : < 10%

Per the record, `N#Cc1c(-c2ccc(F)cc2)nc(SCc2ccccc2)nc1N1CCNCC1` has inhibition at 10 µM of > 100%

* * *

Form field: GI% (one value per entry).
# Tested on: HL-60(TB)
# experiment_summary: NCI60 antitumor screening
# Type: cell-based, human
# test_parameters: 10 μM one-dose
Field format: number, assumed %, no unit text.

compound	target_of_assay	result_unit	measured_number
N#Cc1c(Cl)nc(SCc2ccc(F)cc2)nc1-c1ccc(F)cc1 [3b]	HL-60(TB)	%	49.83

Here is the next item to consider.
The recorded GI% for N#Cc1c(-c2ccc(F)cc2)nc(SCc2ccc([N+](=O)[O-])cc2)[nH]c1=O [2c] is 49.95

* * *

Examples of molecules with documented inhibition at 10 µM follow.
# Tested on: SF-295
# experiment_summary: NCI60 antitumor screening
# Type: cell-based, human
# test_parameters: Homo sapiens; 10 μM single dose; SF-295 (CNS cancer); read-out: growth inhibition percent (GI%)

molecule	result
N#Cc1c(-c2ccc(F)cc2)nc(SCc2ccccc2)nc1N1CCNCC1 [4e]	> 100%
Cc1ccc(CSc2nc(-c3ccc(F)cc3)c(C#N)c(N3CCNCC3)n2)cc1 [4h]	< 10%
N#Cc1c(-c2ccc(F)cc2)nc(SCc2ccc([N+](=O)[O-])cc2)nc1N1CCNCC1 [4g]	< 10%
Cc1ccc(CSc2nc(-c3ccc(F)cc3)c(C#N)c(N3CCN(c4ccccc4)CC3)n2)cc1 [4p]	< 10%

# input for lookup
inhibition at 10 µM in this record for N#Cc1c(-c2ccc(F)cc2)nc(SCc2ccc(F)cc2)nc1N1CCNCC1 [4f] : > 100%

* * *

# Tested on: KM12
# experiment_summary: NCI60 antitumor screening
# Type: cell-based, human
# test_parameters: Homo sapiens; 10 μM single dose; KM12 (colon cancer); read-out: growth inhibition percent (GI%)
reported_property: inhibition at 10 µM

GET /value?item= N#Cc1c(-c2ccc(F)cc2)nc(SCc2ccc([N+](=O)[O-])cc2)nc1N1CCNCC1 [4g] &field=inhibition at 10 µM returns < 10%

Lab book: inhibition at 10 µM of N#Cc1c(-c2ccc(F)cc2)nc(SCc2ccc([N+](=O)[O-])cc2)nc1N1CCN(c2ccccc2)CC1 [4o] noted as < 10%

Reported inhibition at 10 µM of Cc1ccc(CSc2nc(-c3ccc(F)cc3)c(C#N)c(N3CCN(C)CC3)n2)cc1 [4l] : < 10%
